Induction factor overview
biological target: PPARγ (Homo sapiens); construct: expressed in transfected cells; host or cells: COS-7 cells; experiment: PPARγ/Gal4 transactivation system in COS-7 cells; format: cell-based; settings: 0.3 μM, 24 hours
Sequence (P37231 238-503 limits assumed): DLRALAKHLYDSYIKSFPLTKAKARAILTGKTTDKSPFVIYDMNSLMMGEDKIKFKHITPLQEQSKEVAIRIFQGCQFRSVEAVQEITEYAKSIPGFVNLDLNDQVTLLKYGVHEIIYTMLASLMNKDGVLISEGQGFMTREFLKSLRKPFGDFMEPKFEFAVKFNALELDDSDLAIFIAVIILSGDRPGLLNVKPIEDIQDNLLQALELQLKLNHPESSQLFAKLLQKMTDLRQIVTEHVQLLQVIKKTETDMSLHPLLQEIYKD

>  <smi>
Cc1cc(/C=C/C(=O)c2ccc(Oc3ccccc3)cc2)cc(C)c1OC(C)(C)C(=O)O

>  <Induction factor>
5.95

$$$$
>  <smi>
Cc1cc(/C=C/C(=O)c2c(C)c(C)c(C)c(C)c2C)cc(C)c1OC(C)(C)C(=O)O

>  <Induction factor>
6.96

$$$$
>  <smi>
CSc1c(C)cc(C(=O)/C=C/c2cc(C)c(OC(C)(C)C(=O)O)c(C)c2)cc1C

>  <Induction factor>
3.66

$$$$
>  <smi>
Cc1cc(/C=C/C(=O)c2ccc(OCCSC3CCCCC3)cc2)cc(C)c1OC(C)(C)C(=O)O

>  <Induction factor>
6.84

$$$$
>  <smi>
CCCCCCSc1c(C)cc(C(=O)/C=C/c2cc(C)c(OC(C)(C)C(=O)O)c(C)c2)cc1C

>  <Induction factor>
4.86

$$$$

----------
target: PPARα (Homo sapiens, UniProt Q07869); construct: expressed in transfected cells; host or cells: COS-7 cells; test: PPARα/Gal4 transactivation system in COS-7 cells; type: cell-based; details: 1 μM, 24 hours

>  <compound>
Cc1cc(/C=C/C(=O)c2c(C)c(C)c(C)c(C)c2C)cc(C)c1OC(C)(C)C(=O)O [compound 31]

>  <Induction factor>
1.88

$$$$
>  <compound>
Cc1cc(C(=O)/C=C/c2cc(C)c(OC(C)(C)C(=O)O)c(C)c2)cc(C)c1O [compound 4]

>  <Induction factor>
1.67

$$$$
>  <compound>
CSc1c(C)cc(C(=O)/C=C/c2cc(C)c(OC(C)(C)C(=O)O)c(C)c2)cc1C [compound 13]

>  <Induction factor>
17.05

$$$$
>  <compound>
COc1ccc(C(=O)/C=C/c2cc(C)c(OC(C)(C)C(=O)O)c(C)c2)cc1F [compound 35]

>  <Induction factor>
24.33

$$$$
>  <compound>
CCCCCCSc1c(C)cc(C(=O)/C=C/c2cc(C)c(OC(C)(C)C(=O)O)c(C)c2)cc1C [compound 39]

>  <Induction factor>
10.42

$$$$
>  <compound>
COc1ccc(C(=O)/C=C/c2cc(C)c(OC(C)(C)C(=O)O)c(C)c2)cc1C [compound 37]

>  <Induction factor>
19.77

$$$$
>  <compound>
Cc1cc(/C=C/C(=O)c2ccc(OCCSC3CCCCC3)cc2)cc(C)c1OC(C)(C)C(=O)O [compound 23]

>  <Induction factor>
8.35

$$$$
>  <compound>
Cc1cc(/C=C/C(=O)c2ccc(OCCCCCC3CCSS3)cc2)cc(C)c1OC(C)(C)C(=O)O (racemic) [compound 6]

>  <Induction factor>
5.48

$$$$
>  <compound>
Cc1cc(/C=C/C(=O)c2ccc(Oc3ccccc3)cc2)cc(C)c1OC(C)(C)C(=O)O [compound 33]

>  <Induction factor>
19.97

$$$$
>  <compound>
CSc1ccc(C(=O)/C=C/c2cc(Br)c(OC(C)(C)C(=O)O)c(Br)c2)cc1 [compound 8]

>  <Induction factor>
15.67

$$$$

----------
Target: PPARα (Homo sapiens)
Construct: expressed in transfected cells; host or cells: COS-7 cells
Sequence (Q07869 239-466 limits assumed): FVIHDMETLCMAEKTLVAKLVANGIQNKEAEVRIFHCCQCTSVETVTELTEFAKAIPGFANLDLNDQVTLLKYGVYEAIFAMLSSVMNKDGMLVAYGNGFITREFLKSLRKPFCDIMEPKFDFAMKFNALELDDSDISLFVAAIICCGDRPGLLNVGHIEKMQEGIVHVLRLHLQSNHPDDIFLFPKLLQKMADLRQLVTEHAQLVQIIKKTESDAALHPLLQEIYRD
Test: PPARα/Gal4 transactivation system in COS-7 cells
Type: cell-based
Settings: 3 μM, 24 hours
Protocol: COS-7 cells were incubated with different concentrations of the inventive compounds for 24 hours. The results are expressed as the induction factor (ratio of luminescent signal obtained with the compound and that observed without the compound) after the different treatments. […]

>  <compound>
CCCCCCSc1c(C)cc(C(=O)/C=C/c2cc(C)c(OC(C)(C)C(=O)O)c(C)c2)cc1C [compound 39]

>  <Induction factor>
9.96

$$$$
>  <compound>
COc1ccc(C(=O)/C=C/c2cc(C)c(OC(C)(C)C(=O)O)c(C)c2)cc1C [compound 37]

>  <Induction factor>
16.89

$$$$
>  <compound>
Cc1cc(/C=C/C(=O)c2c(C)c(C)c(C)c(C)c2C)cc(C)c1OC(C)(C)C(=O)O [compound 31]

>  <Induction factor>
3.69

$$$$
>  <compound>
COc1ccc(C(=O)/C=C/c2cc(C)c(OC(C)(C)C(=O)O)c(C)c2)cc1F [compound 35]

>  <Induction factor>
23.70

$$$$
>  <compound>
Cc1cc(/C=C/C(=O)c2ccc(OCCSC3CCCCC3)cc2)cc(C)c1OC(C)(C)C(=O)O [compound 23]

>  <Induction factor>
7.15

$$$$
